The values you see were collected from PubChem BioAssay AID1159580.

protocol: chemical genetic growth profiling, strain panel (AID 1159580);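 also: tested at 20 µM; growth read once vehicle control cultures reached saturation at 30 °C; 1 = growth at the plate median or of vehicle wells; lower values mean less growth of the strain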
testSettings: S. cerevisiae deletion strains, growth OD, locus YLL041C, strain sdh2, active compounds read low
The whole screen tested about 5,500 compounds, of which about 2,000 (36%) were called active. Another 18% or so got no clear call; they are omitted. This is one part of the list.
assayEndpoint: normalized growth
API doc: respond with a numeric literal and nothing else, no unit.

Some compounds with recorded normalized growth:
normalized growth recorded for this compound, CC(=O)OCC(=O)[C@@]12OC3(CCCC3)O[C@@H]1CC1C3CCC4=CC(=O)C=C[C@]4(C)[C@@]3(F)[C@@H](O)C[C@@]12C (some centres undefined) , is 1.02

normalized growth recorded for this compound, CC(=O)Oc1cc2c(c(C)c1OC(C)=O)CC1OC13C2(C)CCC1(C)C2CC(C)(C(=O)O)CCC2(C)CCC13C (centres undefined) , is 1.01

normalized growth recorded for this compound, CCOc1cccc(C(=O)c2ccc(O)c(O)c2O)c1 , is 0.939

normalized growth recorded for this compound, c1ccc2c(Cc3c[nH]c4ccccc34)c[nH]c2c1 , is 0.758

normalized growth recorded for this compound, CO[C@H]1C[C@H](O[C@H]2[C@H](C)[C@@H](OC3O[C@H](C)C[C@H](N(C)C)[C@H]3OC(C)=O)[C@@H](C)C[C@]3(CO3)C(=O)[C@H](C)[C@@H](OC(C)=O)[C@@H](C)[C@@H](C)OC(=O)[C@@H]2C)O[C@@H](C)[C@@H]1OC(C)=O (some centres undefined) , is 1

Next compound, please.
normalized growth recorded for this compound, OCc1c[nH]c2ccccc12 , is 0.979

----------
protocol: chemical genetic growth profiling, strain panel (AID 1159580)
testSettings: S. cerevisiae deletion strains, growth OD, locus YDL192W, strain arf1, active compounds read low
In all, about 5,500 compounds went through this assay and about 2,000 (36%) were called active. Not shown: some 18% with an inconclusive outcome. This is one part of the list.
assayEndpoint: normalized growth
API doc: respond with a numeric literal and nothing else, no unit.

normalized growth recorded for this molecule, O=C(O)[C@H](O)[C@@](O)(Cc1ccc(O)cc1)C(=O)O , is 1.03

normalized growth recorded for this molecule, COc1cc(O)cc(OC)c1OC , is 1.03

---
normalized growth recorded for this molecule, CO[C@@]1(NC(=O)Cc2cccs2)C(=O)N2C(C(=O)O)=C(COC(N)=O)CS[C@@H]21 , is 1

normalized growth recorded for this molecule, COc1cccc(OC)c1C(=O)N[C@@H]1C(=O)N2[C@@H]1SC(C)(C)[C@@H]2C(=O)O , is 0.988

normalized growth recorded for this molecule, CC[C@@H](CO)NC(=O)[C@@H]1C=C2c3cccc4[nH]cc(c34)C[C@H]2N(C)C1 , is 0.988

normalized growth recorded for this molecule, NC1C[C@H]1c1ccccc1 (stereo partly specified) , is 0.995

normalized growth recorded for this molecule, OCCN1CCN(CCCN2c3ccccc3Sc3ccc(C(F)(F)F)cc32)CC1 , is 0.963

normalized growth recorded for this molecule, COc1c2c(cc3c1OCO3)C13C=C[C@H](OC)CC1N(C2)CC3O (stereo partly specified) , is 0.986

normalized growth recorded for this molecule, Cc1onc(-c2ccccc2Cl)c1C(=O)N[C@@H]1C(=O)N2[C@@H]1SC(C)(C)[C@@H]2C(=O)O , is 1.01

normalized growth recorded for this molecule, CCN(CC)CCNC(=O)c1cc(Cl)c(N)cc1OC , is 1.01

normalized growth recorded for this molecule, CN1CCN(CCC=C2c3ccccc3Sc3ccc(S(=O)(=O)N(C)C)cc32)CC1 , is 0.991

----------
protocol: chemical genetic growth profiling, strain panel (AID 1159580)
testSettings: S. cerevisiae deletion strains, growth OD, locus YCL011C, strain gbp2, active compounds read low
The whole screen tested about 5,500 compounds, of which about 2,000 (36%) were called active. Roughly 18% stayed inconclusive and do not appear here. Some of the results follow.
assayEndpoint: normalized growth
API doc: respond with a numeric literal and nothing else, no unit.

normalized growth recorded for this compound, CC1(C)C=Cc2cc3ccc(=O)oc3cc2O1 , is 0.865

----------
Attribute: normalized growth
protocol: chemical genetic growth profiling, strain panel (AID 1159580)
testSettings: S. cerevisiae deletion strains, growth OD, locus YHR129C, strain ARP1, active compounds read low
Among all 5,500 compounds or so, about 2,000 (36%) were called active. Another 18% or so got no clear call; they are omitted. Some of the results follow. *1 amine or outer side, *2 acyl side, *3 side chain or, on linkers, in order; H or OH if unused. Where a SMILES comes first, the peptide text is derived from it. Bridges are numbered along the chain shown (N, C = ends). [ ]: non-standard residue; d: D form. The star is where a group is joined. ξ: configuration not given here. ΔAla(E,3-NHCONH2) = NC(=O)N/C=C(/N)C(=O)O; X2 = NC1=NCCC(C(N[*:1])C(=O)[*:2])N1; ξβ3hOrn = NCCCC(N)CC(=O)*; Dap = NC[CH](N)C(=O)O
API doc: respond with a numeric literal and nothing else, no unit.

normalized growth recorded for this molecule, NCCCC(N)CC(=O)NCC1NC(=O)C(CO)NC(=O)C(N)CNC(=O)C(C2CCN=C(N)N2)NC(=O)/C(=C\NC(N)=O)NC1=O (stereo not drawn) (H-[Dap]S[Dap](ξβ3hOrn)[ΔAla(E,3-NHCONH2)][X2]; lactam 1-C; configuration not given here) , is 0.999

---
normalized growth recorded for this molecule, Cc1onc(-c2ccccc2)c1C(=O)NC1C(=O)N2[C@@H]1SC(C)(C)[C@@H]2C(=O)O (some centres undefined) , is 1.01

normalized growth recorded for this molecule, CCC1C(=O)OCC1Cc1cncn1C (centres undefined) , is 1.01

normalized growth recorded for this molecule, C#CC1(O)CCC2C3CCC4=CC(=O)CCC4(C)C3CCC21C (centres undefined) , is 0.999

----------
protocol: chemical genetic growth profiling, strain panel (AID 1159580);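 also: tested at 20 µM; growth read once vehicle control cultures reached saturation at 30 °C; 1 = growth at the plate median or of vehicle wells; lower values mean less growth of the strain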
testSettings: S. cerevisiae deletion strains, growth OD, locus YPR135W, strain CTF4
The campaign covered roughly 5,500 compounds. About 2,000 (36%) were called active. About 18% were inconclusive and are not listed. Cut-off read from the data, not from the text of the source: active = normalized growth mostly below about 0.91 (no sharp cut-off); inconclusive = no clear call, values can overlap the other calls; inactive = mostly above about 0.92. The list shows a part of the results.
Please reply with one of these outcomes: T for active, F for inactive

Look over these answered cases.
How did this test come out for COc1cc(/C=C2/N=C(c3ccccc3I)OC2=O)cc(OC)c1OC ?
F

How did this test come out for O=C(O)c1nccnc1C(=O)O ?
F

How did this test come out for COC(=O)c1cc([N+](=O)[O-])ccc1N1CCOCC1 ?
F

How did this test come out for CC(=O)NC(=O)/C(C#N)=C/N1CCN(Cc2ccccc2)CC1 ?
F

How did this test come out for COc1cc(/C=C2/SC(=S)NC2=O)cc(OC)c1OC ?
F

---
How did this test come out for CCC(=O)Nc1cc(OC)cc(OC)c1 ?
F

----------
protocol: chemical genetic growth profiling, strain panel (AID 1159580);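 also: tested at 20 µM; growth read once vehicle control cultures reached saturation at 30 °C; 1 = growth at the plate median or of vehicle wells; lower values mean less growth of the strain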
testSettings: S. cerevisiae deletion strains, growth OD, locus YLR221C, strain rsa3, active compounds read low
Among all 5,500 compounds or so, about 2,000 (36%) were called active. Inconclusive results (about 18%) are left out. The list shows a part of the results.
assayEndpoint: normalized growth
API doc: respond with a numeric literal and nothing else, no unit.

Some molecules with recorded normalized growth:
normalized growth recorded for this molecule, O=C(O)c1cc(=O)c2cccc(O)c2[nH]1 , is 0.995

normalized growth recorded for this molecule, C[C@]12CCC(=O)C=C1CCC1C2C(=O)C[C@@]2(C)C1CC[C@]2(O)C(=O)CO (stereo not given in full) , is 1

normalized growth recorded for this molecule, O=C(O)c1cc(=O)c2c(Cl)cc(Cl)cc2[nH]1 , is 1.02

normalized growth recorded for this molecule, C[C@]12CCC(=O)C=C1CCC1C2[C@@H](O)C[C@@]2(C)C1CC[C@]2(O)C(=O)COC(=O)CCC(=O)O (stereo not given in full) , is 1.02

---
normalized growth recorded for this molecule, CC(=O)OCC(=O)[C@@]1(O)CCC2C3CCC4=CC(=O)CC[C@]4(C)C3[C@@H](O)C[C@@]21C (stereo not given in full) , is 0.985

----------
protocol: chemical genetic growth profiling, strain panel (AID 1159580);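 also: tested at 20 µM; growth read once vehicle control cultures reached saturation at 30 °C; 1 = growth at the plate median or of vehicle wells; lower values mean less growth of the strain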
testSettings: S. cerevisiae deletion strains, growth OD, locus YKL068W, active compounds read low
About 2,000 (36%) of roughly 5,500 compounds were called active. Inconclusive results (about 18%) are left out. The list shows a part of the results.
Attribute: normalized growth
API doc: respond with a numeric literal and nothing else, no unit.

Some compounds with recorded normalized growth:
normalized growth recorded for this compound, Cc1c(NC(=O)c2cccnc2)c(=O)n(-c2ccccc2)n1C , is 0.99

normalized growth recorded for this compound, CC[C@@H](CO)NC(=O)[C@@H]1C=C2c3cccc4[nH]cc(c34)C[C@H]2N(C)C1 , is 0.996

normalized growth recorded for this compound, CC(=O)O[C@H]1CC[C@]2(C)C3CC[C@@]4(C)C(CC5O[C@@]6(CCC(C)CO6)[C@@H](C)C54)C3CC[C@@H]2C1 (some centres undefined) , is 1

normalized growth recorded for this compound, CN1CCN(CCCN2c3ccccc3Sc3ccc(C(F)(F)F)cc32)CC1 , is 0.984

normalized growth recorded for this compound, COc1c2c(cc3c1OCO3)C13C=C[C@H](OC)CC1N(C2)CC3O (some centres undefined) , is 0.98

---
normalized growth recorded for this compound, CC1(C)C(=O)[C@@H]2O[C@@H]2[C@@]2(C)C1CC(=O)[C@]1(C)C2CC[C@@]2(C)[C@H](c3ccoc3)OC(=O)[C@H]3O[C@]321 (some centres undefined) , is 0.973

normalized growth recorded for this compound, CN1CCN(CCC=C2c3ccccc3Sc3ccc(S(=O)(=O)N(C)C)cc32)CC1 , is 1.01

normalized growth recorded for this compound, OC(c1cc(C(F)(F)F)nc2c(C(F)(F)F)cccc12)C1CCCCN1 (centres undefined) , is 0.99

normalized growth recorded for this compound, CC(=O)O[C@H]1CC[C@]2(C)C3CC(=O)[C@]4(C)C(C(C)=O)=CCC4C3CC[C@H]2C1 (some centres undefined) , is 0.988
